Cited source: PubChem BioAssay AID2060488

The entries below are paired with their reported viability, T/C.
Tested on: 966289-007-R4-J1-PDC complex spheroid viability;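 further: spheroids exposed to the agents for seven days before readout; percent viability relative to DMSO vehicle control wells taken as 100%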
Assay: Anticancer human tumor 966289-007-R4-J1-PDC patient-derived pancreatic adenocarcinoma cell line growth inhibition [GQUAD]
Settings: second compound 0.0316 µM; first compound 3.16 µM; hits give low values
Answer format: numeric, % implied, no suffix.

Sample answers from the record:
compound="CC(C)(O)C1CCC(Nc2ccc3ncc(-c4cccc(C(F)(F)F)c4)n3n2)CC1 (stereo not given) + Cc1cnc(CNC(=O)c2c(=O)c3ccc(N4CCCN(C)CC4)nc3n3c2sc2ccccc23)cn1" quantitative_readout=22
compound="COc1cccc2c1C(=O)c1c(O)c3c(c(O)c1C2=O)CC(O)(C(=O)CO)CC3OC1CC(N)C(O)C(C)O1 (stereo not given) + Cc1cnc(CNC(=O)c2c(=O)c3ccc(N4CCCN(C)CC4)nc3n3c2sc2ccccc23)cn1" quantitative_readout=0.2
compound="COc1ncnc(C2CC2)c1-c1ncc2cnn(Cc3ccc(-c4nc(C(F)(F)F)cn4C(C)C)cc3)c2n1 + Cc1[nH]c2ccc(F)cc2c1-c1nc2c3cccnc3c3ncccc3c2[nH]1" quantitative_readout=104

Any idea what viability, T/C was measured for CC1COCCN1c1cc(C2(S(C)(=N)=O)CC2)nc(-c2ccnc3[nH]ccc23)n1 (stereo not given) + CN(C)c1ccc(Nc2c3ccc(NC(=O)CCN4CCCC4)cc3nc3cc(NC(=O)CCN4CCCC4)ccc23)cc1 ?
69.8

Any idea what viability, T/C was measured for C=CCn1c(=O)c2cnc(Nc3ccc(N4CCN(C)CC4)cc3)nc2n1-c1cccc(C(C)(C)O)n1 + Cc1[nH]c2ccc(F)cc2c1-c1nc2c3cccnc3c3ncccc3c2[nH]1 ?
4.85
